# target-system: PCM1 LIR peptide (biotinylated, BLI)
# test-details: BLI; biotinylated LIR peptide (50 μg/ml) immobilised on streptavidin biosensor, ATG8 in solution; Octet Red 96; 25 mM Tris pH 7.5, 150 mM NaCl, 0.5 mM TCEP, 0.1% Tween-20, 1 mg/ml BSA; 25 °C; Kd from response against concentration
pKd: −log10 of the molar value.
metric: pKd

substance | target-system | pKd
GABARAP (recombinant, BLI) (from UniProt O95166 1-117) (natural protein) | PCM1 LIR peptide (biotinylated, BLI) | 5.70
GABARAP-L1 (recombinant, BLI) (from UniProt Q9H0R8 1-117) (natural protein) | PCM1 LIR peptide (biotinylated, BLI) | 5.80
